systemTested: Cyclin Dependent Kinase 2/Cyclin E1 (CDK2-cycE1) (Homo sapiens)
Construct: purchased ProQinase 0050-0055-1
testName: CDK2-cycE1 TR-FRET (LANCE) enzyme assay
Type: biochemical
assayConditions: Table Q, enzymatic assay; read-out: CDK2 Ki
Yes if Ki is below 3 nM. No if not; exact matches included in No.

Solved entries (count: 5):
COc1nc(C)ncc1Nc1cc([C@H]2CC[C@@H](OC(=O)NC(C)C)C2)[nH]n1 [Example 2Y]: No
CC(C)NC(=O)O[C@@H]1CC[C@H](c2cc(Nc3ccc(-n4ccnc4)cn3)n[nH]2)C1 [Example 2EE]: No
COc1cncc(Nc2cc([C@H]3CC[C@@H](OC(=O)NC(C)C)C3)[nH]n2)n1 [Example 2N]: Yes
CC(C)NC(=O)O[C@@H]1CC[C@H](c2cc(Nc3ccc(-n4cccn4)nc3)n[nH]2)C1 [Example 2D]: No
CC(C)NC(=O)O[C@@H]1CC[C@H](c2cc(Nc3ccn(C)c(=O)c3)n[nH]2)C1 [Example 2AA]: No

Problem: Bench note: check whether CC(C)NC(=O)O[C@@H]1CC[C@H](c2cc(Nc3ccnc(N(C)C)n3)n[nH]2)C1 [Example 2I] shows Ki below 3 nM
Solution: Yes

Problem: Does the reported Ki of Cc1cncc(Nc2cc([C@H]3CC[C@@H](OC(=O)NC(C)C)C3)[nH]n2)c1 [Example 2K] stay below 3 nM?
Solution: No

Problem: Hello, I'm reviewing records and need to know if Ki of COc1ncc(Nc2cc([C@H]3CC[C@@H](OC(=O)NC(C)C)C3)[nH]n2)c(C)n1 [Example 2X] is below 3 nM. Could you check?
Solution: No

---

systemTested: Cyclin Dependent Kinase 1/Cyclin A2 (CDK1-cycA2) (Homo sapiens)
Construct: purchased ProQinase 0134-0054-1
Sequence (P06493 whole entry): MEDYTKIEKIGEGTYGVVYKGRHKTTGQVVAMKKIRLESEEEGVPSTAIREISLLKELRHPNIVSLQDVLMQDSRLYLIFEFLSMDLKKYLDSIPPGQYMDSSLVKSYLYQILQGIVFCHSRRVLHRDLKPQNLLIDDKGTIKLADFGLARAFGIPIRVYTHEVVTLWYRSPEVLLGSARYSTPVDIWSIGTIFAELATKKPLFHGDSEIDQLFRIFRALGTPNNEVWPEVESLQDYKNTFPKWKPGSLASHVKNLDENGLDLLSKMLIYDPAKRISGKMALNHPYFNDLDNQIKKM
Sequence (P20248 whole entry partner): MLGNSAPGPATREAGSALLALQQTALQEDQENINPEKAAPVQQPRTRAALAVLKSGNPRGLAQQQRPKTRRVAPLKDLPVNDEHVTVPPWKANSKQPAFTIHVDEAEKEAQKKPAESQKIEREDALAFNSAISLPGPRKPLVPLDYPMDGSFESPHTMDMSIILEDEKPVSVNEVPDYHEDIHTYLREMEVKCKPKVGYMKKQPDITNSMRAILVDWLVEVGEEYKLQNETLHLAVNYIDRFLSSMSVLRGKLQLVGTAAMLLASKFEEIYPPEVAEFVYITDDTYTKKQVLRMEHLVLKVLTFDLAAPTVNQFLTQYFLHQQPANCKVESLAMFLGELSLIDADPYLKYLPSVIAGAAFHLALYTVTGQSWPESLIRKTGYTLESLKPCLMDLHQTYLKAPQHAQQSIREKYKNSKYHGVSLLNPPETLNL
testName: CDK1-cycA2 TR-FRET (Lance) enzyme assay
Type: biochemical
assayConditions: Table O, enzymatic assay
pKi: −log10 of the molar value.
Kind request: treat 7 as inclusive, so pKi at 7 or higher is 1, anything lower is 0.

Consider the following illustrative entries.
CC(C)NC(=O)O[C@@H]1CC[C@H](c2cc(Nc3cncc(N(C)C)n3)n[nH]2)C1: 1
Cc1ncc(Nc2cc([C@H]3CC[C@@H](OC(=O)NC(C)C)C3)[nH]n2)c(C)n1: 0
O=C(NC12CC(C1)C2)O[C@@H]1CC[C@H](c2cc(Nc3ccc(N4CCOCC4)nc3)n[nH]2)C1: 1
Cc1ncncc1Nc1cc([C@H]2CC[C@@H](OC(=O)NC(C)C)C2)[nH]n1: 0
CC(C)NC(=O)O[C@@H]1CC[C@H](c2cc(Nc3ccnc(N(C)C)n3)n[nH]2)C1: 1
Cc1cncc(Nc2cc([C@H]3CC[C@@H](OC(=O)NC(C)C)C3)[nH]n2)c1: 1
COc1ncc(Nc2cc([C@H]3CC[C@@H](OC(=O)NC(C)C)C3)[nH]n2)cn1: 0
Cc1nc(C(=O)N(C)C)ccc1Nc1cc([C@H]2CC[C@@H](OC(=O)NC3(C)CC3)C2)[nH]n1: 1

Kindly consider the entry below.
Problem: Is pKi at least 7? Consider Cc1nc(C#N)ccc1Nc1cc([C@H]2CC[C@@H](OC(=O)NC(C)(C)C)C2)[nH]n1 [Example 10D]
Solution: 1
